The entries below come with measured GI50 values attached.
test system: SNB-75 CNS; experiment: NCI tumour cell line growth inhibition, 48 h
metric: GI50

1) COc1cc(-c2nn(-c3cccc(NC(=O)Nc4ccc(Cl)c(Cl)c4)c3)cc2-c2ccncc2)ccc1Cl | 1.05 µM
2) CS(=O)(=O)CCCn1c(=O)c(Oc2ccc(F)cc2F)cc2cnc(NC3CCOCC3)nc21 | > 25 µM
3) CCCCCCC[CH2][Sn]1([CH2]CCCCCCC)[O]C(=O)c2cccnc2[S]1 | > 100 µM

----------
Recorded TGI, one value per entry.
test system: HS 578T breast; assay: NCI tumour cell line growth inhibition, 48 h
metric: TGI (µM)

1) CCCCCC(/C=C/C1CCC(=O)C1CC#C[Si](C)(C)C)OCc1ccccc1 (stereo not given) | 39.6
2) Cc1cc(OCc2nnc3n2N=C(c2cc(F)c(Cl)cc2Cl)/C(=C/c2ccc(Cl)cc2)S3)ccc1Cl | 46.1
3) Cc1cn2c(/C=C3\C(=O)Nc4ccc(O)cc43)c(-c3ccc(Cl)cc3)nc2s1 | 84.1
4) Ic1ccc(-n2nnnc2-c2cnoc2-c2ccccc2)cc1 | 98.4

----------
The compounds listed here are annotated with their TGI.
test system: PC-3 prostate; assay: NCI tumour cell line growth inhibition, 48 h
metric: TGI

1. C[C@@H]1CCC2[C@@H](C)[C@@H](OCCO[C@H]3OC4O[C@@]5(C)CCC6[C@H](C)CCC([C@H]3C)[C@@]46OO5)OC3O[C@@]4(C)CCC1[C@]32OO4 (some centres undefined) | > 95.8 µM
2. Cc1ccc(-c2c3c(n(C4OC(CO)C(O)C(O)C4O)c(=S)c2C#N)CC(C)(C)CC3=O)cc1 (centres undefined) | > 100 µM
3. C=CCc1cccc(/C=N/NC(=O)CN2CCN(Cc3ccccc3)CC2)c1O | 16.1 µM
4. CC(C)=C1C(=O)C[C@]2(C)C[C@H]3/C(=C(/C)CCC12)CC[C@@]3(C)O (some centres undefined) | > 50 µM

----------
tested on: SN12C renal; assay: NCI tumour cell line growth inhibition, 48 h
metric: TGI

1. O=c1[nH]c(=O)n(C2CC(O)C(CO)O2)cc1CO (stereo unspecified) | > 100 µM
2. CC(=O)Nc1ccc2cc(C)c(=O)[nH]c2n1 | > 100 µM
3. CCOC(=O)NC(=O)c1cn(CCOC(=O)NCCCCCCNC(=O)OCCn2cc(C(=O)NC(=O)OCC)c(=O)[nH]c2=O)c(=O)[nH]c1=O | > 100 µM
4. COc1ccc(C(O)c2nccn2C)c(OC)c1 (stereo unspecified) | > 100 µM
5. CCCCCC(/C=C/C1CCC(=O)C1CC#C[Si](C)(C)C)OCc1ccccc1 (stereo unspecified) | 39 µM
6. CC(C)(C)NC(=O)N1N=C(c2ccccc2)C1c1ccccc1 (stereo unspecified) | > 100 µM
7. Cc1c(Cl)cccc1N1C(=O)C(Cl)=C(Cl)C1=O | > 100 µM
8. O=C(c1ccc(Cl)cc1)c1cnc(Nc2ccccc2Cl)s1 | 52.1 µM
9. CC(C)=CCc1cc(O)cc2c1OC(C=C(C)C)C1=C2C(=O)C2=C(NCCS2(=O)=O)C1=O (stereo unspecified) | 2.02 µM
10. CCN(CC)c1nc(-c2ccc(Cl)cc2Cl)nc2ccccc12 | 46.2 µM
11. CC(CC(=O)O)C(C(=O)O)C(=O)O (stereo unspecified) | > 100 µM
